# ASSAYED_SYSTEM: KRasG12C (M1-K169, biotinylated on the N-terminus) (Homo sapiens (Human), UniProt P01116, G12C)
# ASSAY_NOTES: Covalent competition assay: scintillation proximity assay (SPA) quantifying covalent modification of KRASG12C
# MEASUREMENT_CONDITIONS: competition with radiolabeled covalent probe (Compound B/Compound A), 2 hours incubation, 10 nM KRasG12C
pIC50: −log10 of the molar value.
Consider the following compounds and their measured pIC50 readings.

COMPOUND: C=CC(=O)N1CC2(CC(n3nc(N4CCN(CC(C)(C)O)CC45CCC5)c(-c4c(Cl)c(F)cc5[nH]ncc45)c3C)C2)C1 (single isomer, unassigned) [Example 167a]
RESULT: < 5.30

COMPOUND: C=CC(=O)N1CC2(CC(n3nc(N4CCN(C[C@@H]5COCCO5)CC45CCC5)c(-c4c(Cl)c(Cl)cc5[nH]ncc45)c3C)C2)C1 (single isomer, unassigned) [Example 171a]
RESULT: < 5.30

Inquiry: Which pIC50 is listed for C=CC(=O)N1CC2(CC(n3nc(N4CC[C@@H](CN5CC6OCCN(C)C6C5)CC4(C)C)c(-c4c(Cl)c(Cl)cc5[nH]ncc45)c3C)C2)C1 (single isomer, unassigned) [Example 260a] ?
Reply text: < 5.30

###

Consider the following compounds and their measured IC50 readings.
# ASSAYED_SYSTEM: KRasG12C (M1-K169, biotinylated on the N-terminus) (Homo sapiens (Human), UniProt P01116, G12C)
# ASSAY_NOTES: Covalent competition assay: scintillation proximity assay (SPA) quantifying covalent modification of KRASG12C
# MEASUREMENT_CONDITIONS: competition with radiolabeled covalent probe (Compound B/Compound A), 2 hours incubation, 10 nM KRasG12C

COMPOUND: C=CC(=O)N1CC2(CC(n3nc(N4CCC5(CN(C6COC6)C5)CC45CCC5)c(-c4c(Cl)c(C)cc5[nH]ncc45)c3C)C2)C1 (single isomer, unassigned) [Example 93a]
IC50: > 5 µM
//
COMPOUND: C=CC(=O)N1CC2(CC(n3nc(N4CC[C@@H](CN(C)S(=O)(=O)N5CCN(C)CC5)CC4(C)C)c(-c4c(Cl)c(Cl)cc5[nH]ncc45)c3C)C2)C1 (single isomer, unassigned) [Example 304a]
IC50: > 5 µM
//
COMPOUND: C=CC(=O)N1CC2(CC(n3nc(N4CCc5nn(C)c(=O)cc5C4)c(-c4c(Cl)c(C)cc5[nH]ncc45)c3C)C2)C1 (single isomer, unassigned) [Example 40a]
IC50: > 50 µM
//
COMPOUND: C=CC(=O)N1CC2(CC(n3nc(N4CCN(C[C@@H]5COCCO5)C[C@]4(C)CC)c(-c4c(Cl)c(C)cc5[nH]ncc45)c3C)C2)C1C (single isomer, unassigned) [Example 199a]
IC50: > 5 µM
//
COMPOUND: C=CC(=O)N1CC2(CC(n3nc(N4CC[C@@H](CN5C[C@H](O)C[C@@H](F)C5)CC4(C)C)c(-c4c(Cl)c(Cl)cc5[nH]ncc45)c3C)C2)C1 (single isomer, unassigned) [Example 300a]
IC50: > 5 µM

Let us move to another entry and its IC50.
Inquiry: Which IC50 is listed for C=CC(=O)N1CC2(CC(n3nc(N4CCN(C(C)=O)CC4(C)C)c(-c4c(Cl)c(C)cc5[nH]ncc45)c3C3CC3)C2)C1 (single isomer, unassigned) [Example 24a] ?
Reply text: > 50 µM
